The entries below are paired with their reported Endocytosis EC50, CLDN18.2-overexpressing NCI-N87 cells.
- STUDY SYSTEM: human CLDN18.2 (human)
- Sequence (chain, as listed by the source limits assumed): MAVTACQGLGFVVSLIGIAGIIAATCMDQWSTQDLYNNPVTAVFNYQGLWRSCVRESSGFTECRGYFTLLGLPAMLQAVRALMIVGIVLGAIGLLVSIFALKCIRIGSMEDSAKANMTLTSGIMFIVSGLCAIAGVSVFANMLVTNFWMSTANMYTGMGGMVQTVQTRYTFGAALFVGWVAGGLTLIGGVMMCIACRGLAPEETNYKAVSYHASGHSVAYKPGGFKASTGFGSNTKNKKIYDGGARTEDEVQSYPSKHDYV
- PROCEDURE TEXT: cell-based or functional assay
QUANTITY: Endocytosis EC50, CLDN18.2-overexpressing NCI-N87 cells (nM)

BINDER: hz28G3-1.1-DDDXd (with DAR of 7.4) (antibody, human IgG1, kappa, DAR 7.4, V domains shown, linker-payload MC-GGFG-DDDXd (compound H) conjugated to cysteines of the reduced inter-chain disulfide bonds; positions not given; linker-payload MC-GGFG-DDDXd (compound H) conjugated to cysteines of the reduced inter-chain disulfide bonds; positions not given; DAR 7.4 for the whole molecule, also called anti-CLDN18.2 antibody-drug conjugate) VH: QVQLVQSGAEVKKPGASVKVSCKTSGYSFTDYLMLWVRQAPGQGLEWMGNINPYYGRTTYALKFKGRVTMTVDRSTSTVYMELSSLRSEDTAVYYCARDGYSLRNAMDYWGQGTLVTVSS VL: DIVMTQSPDSLAVSLGERATINCKSSQSLFNSGNQKNYLAWYQQKPGQPPKLLIYGASTRESGVPDRFSGSGSGTDFTLTISSLQAEDVAVYYCQNAHSYPYTFGQGTKVEIKR
UOM: nM
EXPERIMENTAL RESULT: 4.41
//
BINDER: hz28G3-1.3-DDDXd (with DAR of 7.6) (antibody, human IgG1, kappa, DAR 7.6, V domains shown, linker-payload MC-GGFG-DDDXd (compound H) conjugated to cysteines of the reduced inter-chain disulfide bonds; positions not given; linker-payload MC-GGFG-DDDXd (compound H) conjugated to cysteines of the reduced inter-chain disulfide bonds; positions not given; DAR 7.6 for the whole molecule, also called anti-CLDN18.2 antibody-drug conjugate) VH: QVQLVQSGAEVKKPGASVKVSCKTSGYSFTDYLMLWVRQAHGQSLEWMGNINPYYGRTTYALKFKGRVTMTVDRSTSTVYMELSSLRSEDTAVYYCARDGYSLRNAMDYWGQGTLVTVSS VL: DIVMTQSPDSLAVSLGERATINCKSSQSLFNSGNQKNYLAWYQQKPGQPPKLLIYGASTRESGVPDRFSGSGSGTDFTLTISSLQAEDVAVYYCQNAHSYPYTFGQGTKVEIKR
UOM: nM
EXPERIMENTAL RESULT: 3.24
//
BINDER: humanized antibody hz28G3-1.3 (antibody, human IgG1, kappa, V domains shown, Naked humanized anti-CLDN18.2 antibody, human IgG1 / kappa, expressed in CHO cells) VH: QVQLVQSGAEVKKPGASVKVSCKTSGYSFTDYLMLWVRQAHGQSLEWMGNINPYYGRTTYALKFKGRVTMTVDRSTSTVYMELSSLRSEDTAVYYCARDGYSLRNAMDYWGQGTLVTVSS VL: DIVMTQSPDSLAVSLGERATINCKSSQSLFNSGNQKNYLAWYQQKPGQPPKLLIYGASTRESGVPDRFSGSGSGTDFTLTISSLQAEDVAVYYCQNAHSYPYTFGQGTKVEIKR
UOM: nM
EXPERIMENTAL RESULT: 6.68
//
BINDER: humanized antibody hz28G3-1.1 (antibody, human IgG1, kappa, V domains shown, Naked humanized anti-CLDN18.2 antibody, human IgG1 / kappa, expressed in CHO cells) VH: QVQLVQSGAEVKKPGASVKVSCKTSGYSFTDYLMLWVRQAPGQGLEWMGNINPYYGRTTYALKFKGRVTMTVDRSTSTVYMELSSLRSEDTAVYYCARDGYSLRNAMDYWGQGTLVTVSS VL: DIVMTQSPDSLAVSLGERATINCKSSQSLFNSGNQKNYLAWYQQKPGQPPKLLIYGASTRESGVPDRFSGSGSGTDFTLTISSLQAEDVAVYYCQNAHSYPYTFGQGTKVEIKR
UOM: nM
EXPERIMENTAL RESULT: 7.84
